Known self-cleavage of a selection of variants
B1: HDV Ribozyme (parent)
chain: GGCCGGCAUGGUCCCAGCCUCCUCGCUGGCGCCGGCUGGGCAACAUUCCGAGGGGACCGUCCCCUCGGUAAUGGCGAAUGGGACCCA

- Variants of: B1
- assay explanation: self-cleavage, relative activity (ratio to wild type); higher = more cleavage; co-transcriptional
measured parameter: self-cleavage

>  <mutation id>
G31C U46A

>  <measured parameter>
self-cleavage

>  <result>
0.256

$$$$
>  <mutation id>
G10A C30G

>  <measured parameter>
self-cleavage

>  <result>
0.0777

$$$$
>  <mutation id>
C36A U72G

>  <measured parameter>
self-cleavage

>  <result>
0.0978

$$$$
>  <mutation id>
G6U A78C

>  <measured parameter>
self-cleavage

>  <result>
0.252

$$$$
>  <mutation id>
A16C U37A

>  <measured parameter>
self-cleavage

>  <result>
0

$$$$
>  <mutation id>
A56U G80U

>  <measured parameter>
self-cleavage

>  <result>
0.237

$$$$
>  <mutation id>
G29A A77C

>  <measured parameter>
self-cleavage

>  <result>
0.111

$$$$
>  <mutation id>
C61A U69G

>  <measured parameter>
self-cleavage

>  <result>
1.03

$$$$
>  <mutation id>
G40C A43G

>  <measured parameter>
self-cleavage

>  <result>
0.136

$$$$
